# Experimental System: hGARP-proTGFβ1 presented on cells (human, UniProt P01137 30-390; Q14392 20-662)
# Sequence (P01137 30-390 limits assumed, chain 1 of 2): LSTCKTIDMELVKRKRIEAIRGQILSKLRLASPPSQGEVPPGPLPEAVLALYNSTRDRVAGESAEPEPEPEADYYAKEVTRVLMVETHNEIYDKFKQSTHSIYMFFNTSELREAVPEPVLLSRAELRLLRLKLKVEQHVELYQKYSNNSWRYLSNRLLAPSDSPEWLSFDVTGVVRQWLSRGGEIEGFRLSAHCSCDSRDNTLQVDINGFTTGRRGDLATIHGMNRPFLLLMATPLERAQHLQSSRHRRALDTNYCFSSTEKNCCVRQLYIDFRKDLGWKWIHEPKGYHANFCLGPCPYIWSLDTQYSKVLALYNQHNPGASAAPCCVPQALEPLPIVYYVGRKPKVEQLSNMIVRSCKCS
# Sequence (Q14392 20-662 limits assumed, chain 2 of 2): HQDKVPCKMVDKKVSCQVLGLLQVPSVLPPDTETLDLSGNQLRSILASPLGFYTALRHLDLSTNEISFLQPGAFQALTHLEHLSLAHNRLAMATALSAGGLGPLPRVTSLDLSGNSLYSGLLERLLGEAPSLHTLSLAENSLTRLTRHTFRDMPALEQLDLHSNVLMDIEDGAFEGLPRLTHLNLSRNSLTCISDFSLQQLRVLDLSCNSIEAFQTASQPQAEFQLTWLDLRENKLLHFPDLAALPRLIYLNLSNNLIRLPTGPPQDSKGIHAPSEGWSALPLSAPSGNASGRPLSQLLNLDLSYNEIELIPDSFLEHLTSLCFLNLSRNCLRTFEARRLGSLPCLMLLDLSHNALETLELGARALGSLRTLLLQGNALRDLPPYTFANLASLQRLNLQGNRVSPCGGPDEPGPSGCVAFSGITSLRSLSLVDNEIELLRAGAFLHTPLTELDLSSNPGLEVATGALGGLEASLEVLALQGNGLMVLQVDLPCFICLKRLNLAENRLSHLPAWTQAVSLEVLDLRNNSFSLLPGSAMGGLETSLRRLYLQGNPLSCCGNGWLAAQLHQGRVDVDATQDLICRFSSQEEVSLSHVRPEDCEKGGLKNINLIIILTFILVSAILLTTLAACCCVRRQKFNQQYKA
# Method Notes: cell-based or functional assay
Field: IC50, reporter cell assay. Provide a value for each of the binders that follow.

Binder	Assay Value
Ab19 (antibody, IgG4, V domains shown) VH: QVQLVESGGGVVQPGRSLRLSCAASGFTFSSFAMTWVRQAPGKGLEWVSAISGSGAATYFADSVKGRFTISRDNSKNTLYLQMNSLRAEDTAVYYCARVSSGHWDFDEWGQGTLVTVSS VL: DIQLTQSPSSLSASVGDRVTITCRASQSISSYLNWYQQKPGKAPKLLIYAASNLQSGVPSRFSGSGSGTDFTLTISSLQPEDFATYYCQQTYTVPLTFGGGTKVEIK	1.34 nM
Ab2 (antibody, V domains shown) VH: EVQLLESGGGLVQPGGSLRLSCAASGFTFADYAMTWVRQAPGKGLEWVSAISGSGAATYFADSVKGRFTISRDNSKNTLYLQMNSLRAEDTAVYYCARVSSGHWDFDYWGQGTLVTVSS VL: DIQLTQSPSSLSASVGDRVTITCRASQSISSYLNWYQQKPGKAPKLLIYAASNLQSGVPSRFSGSGSGTDFTLTISSLQPEDFATYYCQQTYTVPLTFGGGTKVEIKR	0.776 nM

Kindly consider the entry below.
Name the reported IC50, reporter cell assay value associated with the binder Ab25 (antibody, V domains shown) VH: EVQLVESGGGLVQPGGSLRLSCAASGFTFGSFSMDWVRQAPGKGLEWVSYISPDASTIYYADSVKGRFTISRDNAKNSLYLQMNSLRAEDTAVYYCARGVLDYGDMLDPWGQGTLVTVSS VL: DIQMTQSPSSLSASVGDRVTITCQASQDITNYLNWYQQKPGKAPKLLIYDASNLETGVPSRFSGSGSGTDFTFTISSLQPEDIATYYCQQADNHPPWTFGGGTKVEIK
0.442 nM
